Each record here notes measured EC50.
- Tested on: Plasmodium falciparum
- MEASUREMENT PROTOCOL: Antimalarial activity against Plasmodium falciparum 3D7 infected in A+ human erythrocytes assessed as reduction in parasite growth incubated for 72 hrs by SYBR Green I staining based analysis
- Assay type: functional, organism-based
- CONDITIONS USED: 3D7, Erythrocyte
Write the value in nM as a bare number.

1) C[C@H]1[C@H](OC(=O)CCC(=O)OCCCc2cn(-c3ccnc4cc(Cl)ccc34)nn2)O[C@@H]2O[C@@]3(C)CC[C@H]4[C@H](C)CC[C@@H]1[C@@]24OO3; 5.4
2) CCCCc1nc(C)c2ccc(-c3cn(CCOC(=O)CCC(=O)O[C@@H]4O[C@@H]5O[C@@]6(C)CC[C@H]7[C@H](C)CC[C@@H]([C@H]4C)[C@@]57OO6)nn3)cc2c1CCCC; 9.2

Now for another entry.
Challenge: Could you share which EC50 value was measured for `C[C@H]1[C@H](OC(=O)CCC(=O)OCCCCc2cn(-c3ccnc4cc(Cl)ccc34)nn2)O[C@@H]2O[C@@]3(C)CC[C@H]4[C@H](C)CC[C@@H]1[C@@]24OO3` ?
Response given: 6.2
